Test system: HT-29 cells
Experiment: Cell necrosis inhibitory activity under necroptosis-inducing conditions (TNF-α, Z-VAD-FMK, LCL161) in HT-29 cells, Cell Titer-Glo
Assay type: cell-based
Conditions: Homo sapiens, 100 ng/mL TNF-α + 25 μM Z-VAD-FMK + Smac mimetic LCL161, 24 hours, cell viability
pEC50: −log10 of the molar value.
Reported pEC50 values for the following compounds.
reported endpoint: pEC50

molecular string	endpoint value
COc1ccc(-c2ccc3nc(NC(C)=O)oc3c2)cc1NC(=O)N1OCC[C@H]1c1ccccc1	8.31
Cc1ccc(-c2ccc3ncc(C#CC(C)(C)O)n3c2)cc1NC(=O)N1OCC[C@H]1c1ccccc1	8.77
COc1ncc(-c2ccc3nc(N)nn3c2)cc1NC(=O)N1OCC[C@H]1c1ccccc1	8.42
CC(=O)Nc1cn2nc(-c3cnc(C)c(NC(=O)N4OCC[C@H]4c4ccccc4)c3)ccc2n1	9.05
Cc1ccc(-c2ccc3ncc(C#N)n3n2)cc1NC(=O)N1OCC[C@H]1c1ccccc1	8.37
COc1ccc(-c2ccc3nc(NC(C)=O)sc3c2)cc1NC(=O)N1OCC[C@H]1c1ccccc1	9.00
Cc1ncc(-c2ccc3nc(N)nn3c2)cc1NC(=O)N1OCC[C@H]1c1cccc(Cl)c1	9.05
Cc1ccc(-c2ccc3nnc(C(F)(F)F)n3n2)cc1NC(=O)N1OCC[C@H]1c1ccccc1	7.53
Cc1ccc(-c2ccc3ncc(C#N)n3c2)cc1NC(=O)N1OCC[C@H]1c1ccccc1	8.72
Cc1ncc(-c2ccc3nc(N)nn3c2)cc1NC(=O)N1OCC[C@H]1c1ccccc1	8.92
COc1ccc(-c2ccn3nc(N)nc3c2)c(F)c1NC(=O)N1OCC[C@H]1c1ccccc1	7.81
O=C(Nc1nc2ccc(-c3cccc(NC(=O)N4OCC[C@H]4c4ccccc4)c3)cc2s1)C1CC1	9.70
Cc1ccc(-c2ccc3nc(NC(=O)C4CC4)sc3n2)cc1NC(=O)N1OCC[C@H]1c1ccc(C#N)cc1	9.52
COc1ncc(-c2ccc3nc(N)nn3c2)cc1NC(=O)N1OCC[C@H]1c1cccc(F)c1	8.41
Cc1ccc(-c2ccn3nc(N)nc3c2)cc1NC(=O)N1OCC[C@H]1c1ccc(C#N)cc1	9.22
Cc1ncc(-c2ccc3nc(N)nn3c2)cc1NC(=O)N1OCC[C@H]1c1ccc(F)c(Cl)c1	9.22

###

Entries and their measured pEC50 follow.
Tested on: HT-29 cells
Experiment: Cell necrosis inhibitory activity under necroptosis-inducing conditions (TNF-α, Z-VAD-FMK, LCL161) in HT-29 cells, Cell Titer-Glo
Format: cell-based
Details: Homo sapiens, 100 ng/mL TNF-α + 25 μM Z-VAD-FMK + Smac mimetic LCL161, 24 hours, cell viability
pEC50: −log10 of the molar value.
reported endpoint: pEC50

compound	reported endpoint	endpoint value
Cc1ccc(-c2ccn3nc(N)nc3c2)cc1NC(=O)N1OCC[C@H]1c1ccccc1 [Example 61]	pEC50	9.70
Cc1ccc(-c2ccc3nccn3c2)cc1NC(=O)N1OCC[C@H]1c1ccccc1 [Example 113]	pEC50	8.62
Cc1ncc(-c2ccc3nc(N)nn3c2)cc1NC(=O)N1OCC[C@H]1c1cccc(F)c1 [Example 37]	pEC50	8.96
Cc1ccc(-c2ccn3nc(N)nc3c2)cc1NC(=O)N1OCC[C@H]1c1ccc(Cl)cc1 [Example 65]	pEC50	9.70
CNC(=O)c1n[nH]c2cc(-c3ccc(OC)c(NC(=O)N4OCC[C@H]4c4ccccc4)c3)ccc12 [Example 24]	pEC50	9.40
Cc1ccc(-c2ccc3nc(N)nn3c2)cc1NC(=O)N1OCC[C@H]1c1ccc(F)cc1 [Example 66]	pEC50	9.40
Cc1ncc(-c2ccc3nc(N)nn3c2)cc1NC(=O)N1OCC[C@H]1c1cccc(C(F)(F)F)c1 [Example 41]	pEC50	9.00
Cc1ccc(-c2ccc3ncnn3c2)cc1NC(=O)N1OCC[C@H]1c1ccccc1 [Example 101]	pEC50	8.21

###

Tested on: HT-29 cells
Experiment: Cell necrosis inhibitory activity under necroptosis-inducing conditions (TNF-α, Z-VAD-FMK, LCL161) in HT-29 cells, Cell Titer-Glo
Type: cell-based
Conditions: Homo sapiens, 100 ng/mL TNF-α + 25 μM Z-VAD-FMK + Smac mimetic LCL161, 24 hours, cell viability
pEC50: −log10 of the molar value.
Quick reference: pEC50 of the listed items.

molecular string	pEC50
CNC(=O)c1n[nH]c2cc(-c3cc(NC(=O)N4OCC[C@H]4c4ccccc4)cnc3C)ccc12	9.52
Cc1ncc(-c2ccc3nc(N)nn3c2)cc1NC(=O)N1OCC[C@H]1c1ccc(F)c(F)c1	9.22
Nc1nc2cc(-c3ccc(Cl)c(NC(=O)N4OCC[C@H]4c4ccccc4)c3)ccn2n1	9.70
O=C(Nc1cn2nc(-c3cccc(NC(=O)N4OCC[C@H]4c4ccccc4)c3)ccc2n1)C1CC1	9.70

###

System: HT-29 cells
Assay: Cell necrosis inhibitory activity under necroptosis-inducing conditions (TNF-α, Z-VAD-FMK, LCL161) in HT-29 cells, Cell Titer-Glo
Type: cell-based
Conditions: Homo sapiens, 100 ng/mL TNF-α + 25 μM Z-VAD-FMK + Smac mimetic LCL161, 24 hours, cell viability
# EC50 annotations
reported endpoint: EC50 (nM)

molecular string	unit descriptor	endpoint value
Cc1ncc(-c2ccn3nc(N)nc3c2)cc1NC(=O)N1OCC[C@H]1c1ccccc1	nM	1.3
CC(=O)Nc1cn2nc(-c3cccc(NC(=O)N4OCC[C@H]4c4ccccc4)c3)ccc2n1	nM	0.9
C#Cc1cnc2ccc(-c3ccc(C)c(NC(=O)N4OCC[C@H]4c4ccccc4)c3)cn12	nM	1
